Target: E. coli GroEL/ES (Escherichia coli)
Test: Inhibition of Escherichia coli GroEL/GroES expressed in Escherichia coli DH5alpha/BL21 (DE3) assessed as inhibition of denatured MDH refolding preincubated for 10 mins followed by ATP addition measured after 2 hrs by fluorescence based assay
# key: entry, value: pIC50
pIC50 is defined as minus the log10 of a concentration measured in mol/L.

* CNC(=O)Oc1c(Br)cc2sc(=O)oc2c1Br | 4.46
* Nc1ccc(Nc2nc(-c3ccc(O)c(O)c3)cs2)cc1 | 5.23
* O=C(/C=C/c1ccc([N+](=O)[O-])cc1)c1ccc(O)c(O)c1 | 5.62

The compound `O=C1NC(=S)N(c2ccc(F)cc2)C(=O)/C1=C/c1ccco1` showed pIC50 equal to 5.92

The compound `Cn1c(=O)c(C(=O)Nc2ccncc2)c(O)c2ccccc21` showed pIC50 equal to 5.14

###

Target: E. coli GroEL/ES (Escherichia coli, UniProt P0A6F5)
Sequence (P0A6F5 whole entry, looked up): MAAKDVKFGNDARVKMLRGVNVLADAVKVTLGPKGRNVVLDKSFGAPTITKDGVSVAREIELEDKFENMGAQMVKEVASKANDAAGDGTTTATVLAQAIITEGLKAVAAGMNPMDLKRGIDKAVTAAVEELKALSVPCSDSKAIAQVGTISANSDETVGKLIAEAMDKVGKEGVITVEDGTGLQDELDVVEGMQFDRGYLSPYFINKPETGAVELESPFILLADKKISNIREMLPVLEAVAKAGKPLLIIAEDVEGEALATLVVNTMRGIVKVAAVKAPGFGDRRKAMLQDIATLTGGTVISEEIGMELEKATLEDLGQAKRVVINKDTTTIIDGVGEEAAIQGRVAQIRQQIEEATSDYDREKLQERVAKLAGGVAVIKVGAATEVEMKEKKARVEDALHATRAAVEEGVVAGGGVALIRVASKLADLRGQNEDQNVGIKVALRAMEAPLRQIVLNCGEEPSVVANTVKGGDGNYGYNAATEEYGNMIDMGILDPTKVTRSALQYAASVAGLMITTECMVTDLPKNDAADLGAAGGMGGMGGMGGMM
Experiment: Inhibition of Escherichia coli GroEL/GroES expressed in Escherichia coli DH5alpha/BL21 (DE3) assessed as inhibition of denatured MDH refolding preincubated for 10 mins followed by ATP addition measured after 2 hrs by fluorescence based assay
# key: entry, value: IC50
The response must be a number in µM with no trailing unit.

Answered cases to consult:
* O=C(O)c1ccc(-c2nc(-c3ccc(-c4ccc(-c5nc(-c6ccc(C(=O)O)cc6)[nH]c5-c5ccccc5)cc4)cc3)c(-c3ccccc3)[nH]2)cc1 | 0.44
* CCOc1ccc(N2C(=O)NC(=O)/C(=C/c3ccc(O)c(O)c3)C2=O)cc1 | 24
* O=C(Nc1ccc(Sc2nc3ccccc3s2)c(Cl)c1)c1cc(Br)cc(Br)c1O | 1.7
* O=C(/C=C/c1cccc([N+](=O)[O-])c1)c1ccc(NC(=O)c2ccco2)cc1 | 1.8
* O=C(O)C1Nc2ccc(Cl)cc2C2C=CCC12 (configuration not stated) | 2.7

Summary: `Cc1ccc(C)n1-c1ccc(O)c(C(=O)O)c1` , E. coli GroEL/ES (Escherichia coli, UniProt P0A6F5), IC50 = 0.62

Summary: `CN(C)c1ccc(/C=C2/C(=O)NC(=S)N(Cc3ccco3)C2=O)cc1` , E. coli GroEL/ES (Escherichia coli, UniProt P0A6F5), IC50 = 5.9

Summary: `Cc1ccc(/C=C2/SC(=S)N(c3ccc(C(=O)O)c(O)c3)C2=O)o1` , E. coli GroEL/ES (Escherichia coli, UniProt P0A6F5), IC50 = 6.1

Summary: `O=C(Nc1ccc2nc(-c3ccco3)c(-c3ccco3)nc2c1)N1CCCC1` , E. coli GroEL/ES (Escherichia coli, UniProt P0A6F5), IC50 = 14

Summary: O=C(O)c1cccc2c1NC(c1cccc(Br)c1)C1CC=CC21 (configuration not stated) , E. coli GroEL/ES (Escherichia coli, UniProt P0A6F5), IC50 = 2.7

Summary: O=C(O)c1cccc2c1NC(c1ccccc1F)C1CC=CC21 (configuration not stated) , E. coli GroEL/ES (Escherichia coli, UniProt P0A6F5), IC50 = 9.1

Summary: `O=c1[nH]nc2cc(O)c3ccccc3n12` , E. coli GroEL/ES (Escherichia coli, UniProt P0A6F5), IC50 = 11

Summary: `O=c1/c(=C/c2ccc(O)c(O)c2)sc2nc3ccccc3n12` , E. coli GroEL/ES (Escherichia coli, UniProt P0A6F5), IC50 = 1.3

Summary: O=C(CC1Nc2cccc3cccc(c23)NC1=O)Nc1cccc([N+](=O)[O-])c1 (configuration not stated) , E. coli GroEL/ES (Escherichia coli, UniProt P0A6F5), IC50 = 97

Summary: `O=C(Nc1cc([N+](=O)[O-])ccc1O)c1ccc2c(c1)C(=O)N(Cc1ccccc1)C2=O` , E. coli GroEL/ES (Escherichia coli, UniProt P0A6F5), IC50 = 52

Summary: `CNC(=O)Nc1ccc2nc(-c3ccco3)c(-c3ccco3)nc2c1` , E. coli GroEL/ES (Escherichia coli, UniProt P0A6F5), IC50 = 5.4

Summary: `O=C1/C(=C/c2ccc(O)c(O)c2)SC(=S)N1c1ccc(O)cc1` , E. coli GroEL/ES (Escherichia coli, UniProt P0A6F5), IC50 = 0.99

Summary: `O=C(/C=C/c1ccco1)c1ccc(NC(=O)c2cccs2)cc1` , E. coli GroEL/ES (Escherichia coli, UniProt P0A6F5), IC50 = 17

Summary: `COC(=O)c1ccc(-c2ccc(/C=C3/SC(=S)NC3=O)o2)cc1` , E. coli GroEL/ES (Escherichia coli, UniProt P0A6F5), IC50 = 8.4

Summary: `Oc1ccc(NCn2nnc3ccccc32)cc1` , E. coli GroEL/ES (Escherichia coli, UniProt P0A6F5), IC50 = 55
